tested on: HCI-024 (organoid from a breast cancer xenograft); test: CTG-3D luminescence at 96 h relative to day-0 seeding control (ratio to day 0); higher = more growth / less cytotoxicity; PDxO 3D drug screen, 96 h, CTG-3D normalised to day-0 seeding control.; settings: 100 µM; days in culture: 163
Quick rule for you: CTG-3D luminescence at 96 h at 0.4 or higher means Yes, lower means No.

compound="O=C(c1ccc(F)c(F)c1Nc1ccc(I)cc1F)N1CC(O)([C@@H]2CCCCN2)C1 [cobimetinib]" group=No
compound=CCN(c1cc(C#CCN2CCOCC2)cc(C(=O)NCc2c(C)cc(C)[nH]c2=O)c1C)[C@H]1CC[C@H](N(C)CCOC)CC1 group=Yes
compound="CC1(C)CCC(c2ccc(Cl)cc2)=C(CN2CCN(c3ccc(C(=O)NS(=O)(=O)c4ccc(N[C@H](CCN5CCOCC5)CSc5ccccc5)c(S(=O)(=O)C(F)(F)F)c4)cc3)CC2)C1 [navitoclax]" group=No
compound="Cc1cc(Nc2ncnc3ccc(NC4=NC(C)(C)CO4)cc23)ccc1Oc1ccn2ncnc2c1 [tucatinib]" group=No
compound="O=C(O)C1(C(=O)O)CCC1.[NH2-].[NH2-].[Pt+2] [carboplatin]" group=Yes
compound="CNC(=O)c1cccc(-c2ccc3c(N4CCOC[C@@H]4C)nc(N4CCOC[C@@H]4C)nc3n2)c1 [vistusertib]" group=Yes
compound="CN(Cc1cnc2nc(N)nc(N)c2n1)c1ccc(C(=O)N[C@@H](CCC(=O)O)C(=O)O)cc1 [methotrexate]" group=Yes
compound="C[C@H](NC(=O)CCC(F)(F)F)C(=O)N[C@@H]1C(=O)N(CCO)c2ncccc2-c2ccccc21 [crenigacestat]" group=Yes
compound="Cc1cc(Nc2ncc(Cl)c(Nc3ccccc3S(=O)(=O)C(C)C)n2)c(OC(C)C)cc1C1CCNCC1 [ceritinib]" group=No
